- Test system: NCI-H23 lung
- procedure_summary: NCI-60 one-dose screen, 48 h (100 = growth as untreated, 0 = no growth, -100 = all killed)
- condition_details: 10 µM unless noted
About 83,000 compounds went through this panel and 20% of them were active in at least one assay; those are over-represented in the sample as a whole.
growth values by entry
Write down the numeric answer in % and omit the unit.

These recorded examples may help you get a feel for the data.
- compound: "CSCCC(NC(=O)C(Cl)Cl)C(=O)O (stereo unspecified)"
  reported: 99
- compound: "Cc1cc2c(C(C)C)c(O)c(O)c(C=Nc3ccccc3[N+](=O)[O-])c2c(O)c1-c1c(C)cc2c(C(C)C)c(O)c(O)c(C=Nc3ccccc3[N+](=O)[O-])c2c1O"
  reported: 71.4
- compound: "Cc1onc(-c2c(F)cccc2Cl)c1-c1ncc(-c2ccc(Br)cc2)o1"
  reported: 42.1
- compound: "NNC(=O)CCCCl"
  reported: 97.7
- compound: "O=C1C=C(c2ccccc2)C(O)(c2ccccc2)C1 (stereo unspecified)"
  reported: 99.1

Can you look up the measured growth of Nc1cc(F)ccc1[N+](=O)[O-] for me?
103
